As shown below, each of these compounds has a reported IC50 value.
Molecular target: Caspase-14 (Homo sapiens)
Sequence (P31944 6-146 limits assumed): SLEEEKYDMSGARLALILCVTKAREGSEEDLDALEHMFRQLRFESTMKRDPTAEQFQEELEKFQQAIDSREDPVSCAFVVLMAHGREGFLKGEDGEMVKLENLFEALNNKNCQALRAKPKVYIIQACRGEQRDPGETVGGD
Sequence (P31944 153-242 limits assumed): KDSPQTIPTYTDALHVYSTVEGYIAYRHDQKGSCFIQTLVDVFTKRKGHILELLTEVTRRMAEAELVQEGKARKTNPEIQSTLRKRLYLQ
I only need the number, in µM, no unit after it.

Compound smiles	Value unit	IC50
N#Cc1nc(Nc2cccc(Cl)c2)nc(NC2CCCC2)n1	µM	14.1

Next:
Entry N#Cc1nc(Nc2cc(F)cc(F)c2)nc(NC2CCCC2)n1 has what IC50? 9.12

====

Assay: Inhibition of recombinant Trypanosoma brucei rhodesain after 5 mins by spectrofluorimetric analysis
pIC50: −log10 of the molar value.
Could you please classify the records by pIC50 using these ranges: LOW: < 7; MID: ≥ 7 and < 8; HIGH: ≥ 8

Before answering, review these 4 worked examples.
Compound smiles	Class label
Cc1cccc(Nc2nc(C#N)nc(NC3CCCC3)n2)c1	MID
N#Cc1nc(N)nc(N(c2ccccc2)c2ccccc2)n1	LOW
N#Cc1nc(Nc2cc(Cl)cc(Cl)c2)nc(NC2CCCC2)n1	MID
N#Cc1nc(Nc2cccc(-c3ccccc3)c2)nc(NC2CCCC2)n1	MID

Bin this entry: N#Cc1nc(Nc2cc(F)cc(F)c2)nc(NC2CCCC2)n1 HIGH

Bin this entry: CCn1cnc2c(Nc3cc(F)cc(F)c3)nc(C#N)nc21 HIGH

Bin this entry: CCOc1nc(C#N)nc(N2CCCCC2)n1 LOW

====

As shown below, each of these compounds has a reported IC50 value.
Test: Inhibition of recombinant Trypanosoma brucei cathepsin B after 5 mins by spectrofluorimetric analysis

Would you please look over these solved cases?
Compound smiles	Assay endpoint	Result
N#Cc1nc(Nc2cccc(Cl)c2)c2ncn(C3CCCC3)c2n1	IC50	> 10 µM
N#Cc1nc(N)nc(N(c2ccccc2)c2ccccc2)n1	IC50	> 1 µM
CCn1cnc2c(Nc3cccc(Cl)c3)nc(C#N)nc21	IC50	> 100 µM
CCn1cnc2c(Nc3cc(F)cc(F)c3)nc(C#N)nc21	IC50	6 µM
Cc1cccc(Nc2nc(C#N)nc(NC3CCCC3)n2)c1	IC50	6 µM
N#Cc1nc(Nc2cccc(Br)c2)nc(NC2CCCC2)n1	IC50	> 100 µM
N#Cc1nc(Nc2cccc(F)c2)nc(NC2CCCC2)n1	IC50	> 1 µM
N#Cc1nc(Nc2cc(Cl)cc(Cl)c2)nc(NC2CCCC2)n1	IC50	> 10 µM

Entry N#Cc1nc(Nc2ccc(Br)cc2)nc(NC2CCCC2)n1 has what IC50? > 10 µM

Entry N#Cc1nc(Nc2cccc(Cl)c2)nc(NC2CCCC2)n1 has what IC50? > 100 µM

Entry N#Cc1nc(Nc2cccc(-c3ccccc3)c2)nc(NC2CCCC2)n1 has what IC50? > 10 µM

====

Target: Dipeptidyl peptidase 1 (Homo sapiens, UniProt P53634)
Sequence (P53634 25-134 limits assumed): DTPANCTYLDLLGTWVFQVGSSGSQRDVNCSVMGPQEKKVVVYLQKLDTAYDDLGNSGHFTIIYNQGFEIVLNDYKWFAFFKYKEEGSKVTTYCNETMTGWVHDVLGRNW
Sequence (P53634 231-394 limits assumed): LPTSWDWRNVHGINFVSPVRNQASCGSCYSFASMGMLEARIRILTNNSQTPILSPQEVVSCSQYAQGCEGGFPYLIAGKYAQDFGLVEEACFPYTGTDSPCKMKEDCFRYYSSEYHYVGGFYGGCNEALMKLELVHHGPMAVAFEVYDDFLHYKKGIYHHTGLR
Sequence (P53634 395-463 limits assumed): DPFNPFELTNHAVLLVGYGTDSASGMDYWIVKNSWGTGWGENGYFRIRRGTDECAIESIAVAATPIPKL
Assay endpoint: pIC50
Please note pIC50 is a logarithmic value: minus log10 of concentration in mol/L. Answer with that number alone.

Field: pIC50 (Dipeptidyl peptidase 1 (Homo sapiens, UniProt P53634)). Entry: CCn1cnc2c(Nc3cc(F)cc(F)c3)nc(C#N)nc21 7.46

====

As shown below, each of these molecules has a reported IC50 value.
Sequence of the target: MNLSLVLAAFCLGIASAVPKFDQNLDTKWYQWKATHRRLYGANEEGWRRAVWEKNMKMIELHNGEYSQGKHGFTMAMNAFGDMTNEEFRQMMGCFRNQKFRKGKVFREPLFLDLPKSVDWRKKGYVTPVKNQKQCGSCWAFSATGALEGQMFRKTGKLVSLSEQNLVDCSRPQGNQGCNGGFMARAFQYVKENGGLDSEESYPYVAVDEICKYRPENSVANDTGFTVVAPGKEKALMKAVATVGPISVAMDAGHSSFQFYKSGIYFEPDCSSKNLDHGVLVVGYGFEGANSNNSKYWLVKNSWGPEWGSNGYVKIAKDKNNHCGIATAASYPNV
I only need the number, in nM, no unit after it.

Would you please look over these solved cases?
Compound smiles	IC50 (nM)
N#Cc1nc(Nc2cccc(Cl)c2)nc(NC2CCCC2)n1	832
CCn1cnc2c(Nc3cc(F)cc(F)c3)nc(C#N)nc21	240

Next:
Entry N#Cc1nc(Nc2cc(F)cc(F)c2)nc(NC2CCCC2)n1 has what IC50? 182

====

Biological target: Papain (Carica papaya, UniProt P00784)
Sequence (P00784 whole entry): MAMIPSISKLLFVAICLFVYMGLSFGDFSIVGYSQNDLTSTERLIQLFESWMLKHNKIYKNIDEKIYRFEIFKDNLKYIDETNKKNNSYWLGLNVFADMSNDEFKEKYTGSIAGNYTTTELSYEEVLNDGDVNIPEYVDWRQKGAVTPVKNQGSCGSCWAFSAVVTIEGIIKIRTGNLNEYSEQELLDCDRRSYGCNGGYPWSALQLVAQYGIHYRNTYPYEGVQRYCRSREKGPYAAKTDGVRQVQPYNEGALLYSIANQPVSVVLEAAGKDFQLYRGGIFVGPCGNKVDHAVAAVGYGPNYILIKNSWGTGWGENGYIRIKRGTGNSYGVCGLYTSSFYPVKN
Assay endpoint: pIC50
Please note pIC50 is a logarithmic value: minus log10 of concentration in mol/L. Answer with that number alone.

Compound smiles	pIC50
CCn1cnc2c(Nc3cc(F)cc(F)c3)nc(C#N)nc21	7.35
N#Cc1nc(Nc2cccc(Cl)c2)nc(NC2CCCC2)n1	6.29

Next:
Entry N#Cc1nc(Nc2cc(F)cc(F)c2)nc(NC2CCCC2)n1 has what pIC50? 6.41

====

Target sequence: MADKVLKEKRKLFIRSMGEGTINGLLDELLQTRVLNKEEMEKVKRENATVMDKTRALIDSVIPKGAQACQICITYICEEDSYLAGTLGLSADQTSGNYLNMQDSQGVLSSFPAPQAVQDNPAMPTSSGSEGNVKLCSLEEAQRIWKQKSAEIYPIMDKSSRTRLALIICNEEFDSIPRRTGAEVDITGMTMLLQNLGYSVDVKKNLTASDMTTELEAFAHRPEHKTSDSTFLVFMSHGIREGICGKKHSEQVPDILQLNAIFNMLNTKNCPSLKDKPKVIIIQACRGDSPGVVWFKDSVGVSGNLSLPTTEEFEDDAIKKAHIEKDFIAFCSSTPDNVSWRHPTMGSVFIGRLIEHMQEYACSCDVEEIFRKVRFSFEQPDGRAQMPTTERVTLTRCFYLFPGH
Assay endpoint: IC50 (µM)
I only need the number, in µM, no unit after it.

Entry CCNc1nc(C#N)nc2c1ncn2-c1cc(F)cc(F)c1 has what IC50? 70.8

====

Target: Caspase-6 (Homo sapiens, UniProt P55212)
Sequence (P55212 whole entry): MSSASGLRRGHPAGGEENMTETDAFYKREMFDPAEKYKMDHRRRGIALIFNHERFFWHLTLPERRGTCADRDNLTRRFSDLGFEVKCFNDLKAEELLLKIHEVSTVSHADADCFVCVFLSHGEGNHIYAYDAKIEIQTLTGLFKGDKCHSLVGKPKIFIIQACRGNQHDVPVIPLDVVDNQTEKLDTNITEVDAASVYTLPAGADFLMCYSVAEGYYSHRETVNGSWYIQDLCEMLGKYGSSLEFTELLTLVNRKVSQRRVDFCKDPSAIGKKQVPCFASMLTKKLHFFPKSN
Assay endpoint: IC50

Compound smiles	IC50
N#Cc1nc(Nc2cccc(Cl)c2)nc(NC2CCCC2)n1	5.13 µM

Next:
Field: IC50 (Caspase-6 (Homo sapiens, UniProt P55212)). Entry: N#Cc1nc(Nc2cc(F)cc(F)c2)nc(NC2CCCC2)n1 3.55 µM

====

Molecular target: Procathepsin L (Homo sapiens)
Sequence (P07711 whole entry): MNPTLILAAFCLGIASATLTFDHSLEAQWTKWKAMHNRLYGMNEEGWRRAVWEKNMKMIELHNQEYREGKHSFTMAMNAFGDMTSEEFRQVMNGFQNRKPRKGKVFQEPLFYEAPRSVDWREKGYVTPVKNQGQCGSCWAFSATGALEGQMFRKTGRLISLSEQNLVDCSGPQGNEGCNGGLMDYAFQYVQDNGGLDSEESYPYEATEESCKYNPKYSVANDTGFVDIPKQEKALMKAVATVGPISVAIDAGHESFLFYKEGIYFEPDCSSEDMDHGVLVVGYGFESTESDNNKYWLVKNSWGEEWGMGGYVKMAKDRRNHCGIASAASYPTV
As shown below, each of these compounds has a reported pIC50 value.
Please note pIC50 is a logarithmic value: minus log10 of concentration in mol/L. Answer with that number alone.

Field: pIC50 (Procathepsin L (Homo sapiens)). Entry: N#Cc1nc(Nc2cccc(Cl)c2)nc(NC2CCCC2)n1 6.51

Field: pIC50 (Procathepsin L (Homo sapiens)). Entry: N#Cc1nc(Nc2cc(F)cc(F)c2)nc(NC2CCCC2)n1 6.69

Field: pIC50 (Procathepsin L (Homo sapiens)). Entry: CCn1cnc2c(Nc3cc(F)cc(F)c3)nc(C#N)nc21 6.93

====

Target: Disintegrin and metalloproteinase domain-containing protein 17 (Homo sapiens)
Sequence (P78536 whole entry, the tested form may be a part): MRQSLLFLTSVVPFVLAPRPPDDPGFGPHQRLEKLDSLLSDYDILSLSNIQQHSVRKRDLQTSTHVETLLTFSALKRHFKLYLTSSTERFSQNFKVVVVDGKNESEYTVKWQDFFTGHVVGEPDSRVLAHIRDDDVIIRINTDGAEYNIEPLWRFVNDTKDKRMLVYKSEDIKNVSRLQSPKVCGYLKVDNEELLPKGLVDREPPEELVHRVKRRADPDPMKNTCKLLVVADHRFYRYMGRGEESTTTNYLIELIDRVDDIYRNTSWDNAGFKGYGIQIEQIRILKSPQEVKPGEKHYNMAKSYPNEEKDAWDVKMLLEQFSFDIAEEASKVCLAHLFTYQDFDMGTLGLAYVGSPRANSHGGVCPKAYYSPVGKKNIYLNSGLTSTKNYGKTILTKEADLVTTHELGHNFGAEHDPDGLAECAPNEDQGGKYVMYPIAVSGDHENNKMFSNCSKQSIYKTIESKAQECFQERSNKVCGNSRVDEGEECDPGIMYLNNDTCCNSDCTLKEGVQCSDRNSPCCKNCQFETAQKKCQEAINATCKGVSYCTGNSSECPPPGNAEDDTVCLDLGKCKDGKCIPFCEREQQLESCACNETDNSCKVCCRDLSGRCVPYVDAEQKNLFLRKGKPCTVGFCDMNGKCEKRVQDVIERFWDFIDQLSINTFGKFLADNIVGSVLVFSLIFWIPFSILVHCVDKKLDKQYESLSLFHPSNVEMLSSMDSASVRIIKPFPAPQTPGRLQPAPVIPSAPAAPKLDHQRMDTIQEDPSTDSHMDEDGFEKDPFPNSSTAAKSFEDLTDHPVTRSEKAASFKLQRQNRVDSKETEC
Assay endpoint: pIC50
Please note pIC50 is a logarithmic value: minus log10 of concentration in mol/L. Answer with that number alone.

Entry CCn1cnc2c(Nc3cc(F)cc(F)c3)nc(C#N)nc21 has what pIC50? 4.13

====

Target: Cathepsin Z (Homo sapiens, UniProt Q9UBR2)
Sequence (Q9UBR2 whole entry): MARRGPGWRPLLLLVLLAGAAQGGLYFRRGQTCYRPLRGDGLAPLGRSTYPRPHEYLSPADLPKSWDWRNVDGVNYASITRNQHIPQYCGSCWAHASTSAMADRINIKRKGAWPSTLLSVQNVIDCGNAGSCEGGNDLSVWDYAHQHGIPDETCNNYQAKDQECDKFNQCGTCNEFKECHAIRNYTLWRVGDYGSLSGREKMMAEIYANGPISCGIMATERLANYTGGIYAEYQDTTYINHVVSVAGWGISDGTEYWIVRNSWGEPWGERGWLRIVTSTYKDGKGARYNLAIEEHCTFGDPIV
Assay endpoint: pIC50
Please note pIC50 is a logarithmic value: minus log10 of concentration in mol/L. Answer with that number alone.

Would you please look over these solved cases?
Compound smiles	pIC50
N#Cc1nc(Nc2cc(F)cc(F)c2)nc(NC2CCCC2)n1	5.50
N#Cc1nc(Nc2cccc(Cl)c2)nc(NC2CCCC2)n1	5.19

Next:
Field: pIC50 (Cathepsin Z (Homo sapiens, UniProt Q9UBR2)). Entry: CCn1cnc2c(Nc3cc(F)cc(F)c3)nc(C#N)nc21 6.03
